B1: Unconventional myosin-Ie, residues 1051 to 1108; numbered along this chain, Q12965 (parent)
chain: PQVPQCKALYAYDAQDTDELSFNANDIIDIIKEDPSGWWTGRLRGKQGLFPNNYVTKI

variants of: B1; assay: abundance fitness (aPCA) (normalised: wild type 0, dead -1); higher = more abundant; growth selection in yeast, the domain comes from the species named; details: Homo sapiens
Here the recorded abundance fitness is given for each entry.

MUTATION_ID: N52A
abundance fitness: 0.03
//
MUTATION_ID: S21W
abundance fitness: -0.559
//
MUTATION_ID: S21Y
abundance fitness: -0.756
